target or system: Vitamin D3 receptor (Homo sapiens)
Sequence (whole entry): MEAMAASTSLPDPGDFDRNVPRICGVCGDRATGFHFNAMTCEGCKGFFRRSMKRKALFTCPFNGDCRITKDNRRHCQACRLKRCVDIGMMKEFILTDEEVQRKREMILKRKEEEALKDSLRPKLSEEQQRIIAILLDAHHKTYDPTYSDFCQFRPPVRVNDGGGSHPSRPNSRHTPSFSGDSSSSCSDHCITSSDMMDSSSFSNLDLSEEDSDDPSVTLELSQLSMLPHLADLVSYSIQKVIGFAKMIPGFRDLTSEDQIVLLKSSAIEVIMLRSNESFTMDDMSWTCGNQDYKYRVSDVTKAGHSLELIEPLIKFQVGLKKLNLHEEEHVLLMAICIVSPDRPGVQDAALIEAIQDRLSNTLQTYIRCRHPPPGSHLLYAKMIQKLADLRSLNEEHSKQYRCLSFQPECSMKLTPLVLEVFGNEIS
test method notes: Relative affinity compared to Calcitriol in displacement of [3H]1H]1-alpha,25(OH)2D3 from vitamin D3 receptor in […] cells
Format: cell-based

compound: C=C1/C(=C/C=C2/CCC[C@]3(C)[C@@H]([C@H](C)CC#C[C@](C)(O)CO)CC[C@@H]23)C[C@@H](O)C[C@@H]1O
Activity, %: 150

compound: C=C1/C(=C/C=C2/CCC[C@]3(C)[C@@H]([C@H](C)CC#CC4(C)CO4)CC[C@@H]23)C[C@@H](O)C[C@@H]1O (some centres undefined)
Activity, %: 150

compound: C=C1/C(=C/C=C2/CCC[C@]3(C)[C@@H]([C@H](C)CC#C[C@@](C)(O)CO)CC[C@@H]23)C[C@@H](O)C[C@@H]1O
Activity, %: 150

compound: C=C1/C(=C/C=C2/CCC[C@]3(C)[C@@H]([C@H](C)CC#C[C@@]4(C)CO4)CC[C@@H]23)C[C@@H](O)C[C@@H]1O
Activity, %: 150

###

The entries below come with measured Activity values attached.
target or system: Vitamin D3 receptor (Sus scrofa) (UniProt A3RGC1)
Sequence (A3RGC1 whole entry): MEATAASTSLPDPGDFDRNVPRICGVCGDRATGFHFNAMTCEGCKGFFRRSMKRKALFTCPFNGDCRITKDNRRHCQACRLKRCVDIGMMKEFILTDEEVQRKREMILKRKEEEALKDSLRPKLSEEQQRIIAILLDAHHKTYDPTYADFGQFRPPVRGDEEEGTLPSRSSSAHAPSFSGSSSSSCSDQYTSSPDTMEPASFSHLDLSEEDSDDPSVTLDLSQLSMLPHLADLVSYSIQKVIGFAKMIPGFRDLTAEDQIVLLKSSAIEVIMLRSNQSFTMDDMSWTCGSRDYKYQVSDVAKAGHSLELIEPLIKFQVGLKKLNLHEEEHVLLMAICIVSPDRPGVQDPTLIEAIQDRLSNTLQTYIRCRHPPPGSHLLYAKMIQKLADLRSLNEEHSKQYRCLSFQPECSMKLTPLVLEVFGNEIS
test method notes: Affinity for pig intestinal mucosa Vitamin D3 receptor (VDR)
Type: tissue-based

compound: C=C1/C(=C/C=C2/CCC[C@]3(C)[C@@H]([C@H](C)CC#C[C@](C)(O)CO)CC[C@@H]23)C[C@@H](O)C[C@@H]1O
Activity: 70
//
compound: C=C1/C(=C/C=C2/CCC[C@]3(C)[C@@H]([C@H](C)CC#C[C@@](C)(O)CO)CC[C@@H]23)C[C@@H](O)C[C@@H]1O
Activity: 80
//
compound: C=C1/C(=C/C=C2/CCC[C@]3(C)[C@@H]([C@H](C)CC#C[C@@]4(C)CO4)CC[C@@H]23)C[C@@H](O)C[C@@H]1O
Activity: 60
//
compound: C=C1/C(=C/C=C2/CCC[C@]3(C)[C@@H]([C@H](C)CC#CC4(C)CO4)CC[C@@H]23)C[C@@H](O)C[C@@H]1O (some centres undefined)
Activity: 70

###

System: Mus musculus
test method notes: In vivo calcemic effect was tested in vitamin D replete normal […] mice by measuring calcium levels in serum
Format: functional
The entries below come with measured Activity values attached.

compound: C=C1/C(=C/C=C2/CCC[C@]3(C)[C@@H]([C@H](C)CC#CC4(C)CO4)CC[C@@H]23)C[C@@H](O)C[C@@H]1O (stereo not given in full)
Activity: 0.25

compound: C=C1/C(=C/C=C2/CCC[C@]3(C)[C@@H]([C@H](C)CC#C[C@@]4(C)CO4)CC[C@@H]23)C[C@@H](O)C[C@@H]1O
Activity: 0.3

compound: C=C1/C(=C/C=C2/CCC[C@]3(C)[C@@H]([C@H](C)CC#C[C@]4(C)CO4)CC[C@@H]23)C[C@@H](O)C[C@@H]1O
Activity: 0.2

compound: C=C1/C(=C/C=C2/CCC[C@]3(C)[C@@H]([C@H](C)CC#C[C@](C)(O)CO)CC[C@@H]23)C[C@@H](O)C[C@@H]1O
Activity: 0.7

compound: C=C1/C(=C/C=C2/CCC[C@]3(C)[C@@H]([C@H](C)CC#C[C@@](C)(O)CO)CC[C@@H]23)C[C@@H](O)C[C@@H]1O
Activity: 0.1
